biological target: human glucagon receptor (human, UniProt P47871 26-477); assay: cell-based or functional assay
Sequence (P47871 26-477): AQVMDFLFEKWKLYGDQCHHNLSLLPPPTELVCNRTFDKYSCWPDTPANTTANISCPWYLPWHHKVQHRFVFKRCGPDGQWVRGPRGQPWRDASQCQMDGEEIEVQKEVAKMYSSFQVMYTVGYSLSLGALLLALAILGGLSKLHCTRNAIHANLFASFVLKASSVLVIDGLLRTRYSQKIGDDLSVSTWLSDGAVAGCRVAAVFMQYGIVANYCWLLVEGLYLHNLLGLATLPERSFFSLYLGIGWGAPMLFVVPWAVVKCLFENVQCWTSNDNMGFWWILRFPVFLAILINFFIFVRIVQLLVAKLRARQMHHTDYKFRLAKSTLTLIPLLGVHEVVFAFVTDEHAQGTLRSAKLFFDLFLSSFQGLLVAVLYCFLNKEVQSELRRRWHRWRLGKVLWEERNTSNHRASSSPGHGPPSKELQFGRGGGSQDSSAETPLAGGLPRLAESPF
Starred links: 1 amine or outer side, 2 acyl side, 3 side chain; linkers in the order of their positions; H or OH if unused. Non-standard residues stand in square brackets, D forms with d. Groups on a side chain read outwards from the residue. No end group written: not given here. *: point of attachment. C20 diacid = O=C(O)CCCCCCCCCCCCCCCCCCC(=O)*; C18 diacid = O=C(O)CCCCCCCCCCCCCCCCC(=O)*; γGlu = O=C(O)[C@H](CCC(=O)[*:2])N[*:1]; αMeF = C[C@](N)(Cc1ccccc1)C(=O)O; AEEA = NCCOCCOCC(=O)O; Aib = CC(C)(N)C(=O)O
The following binders are shown together with reported hGluc-R EC50 (pM), cAMP values.
State just the number; it will be interpreted in pM.

Some binders with recorded hGluc-R EC50 (pM), cAMP:
BINDER	hGluc-R EC50 (pM), cAMP
H[Aib]HGS[αMeF]TSDVSK[αMeF]LDSRAAK([AEEA-γGlu-AEEA-γGlu-C18 diacid])D[αMeF]VQ[Aib]IANT-NH2 [Peptide 260]	76.9
HSHGS[αMeF]TSDVSK[αMeF]LDSRAAK([AEEA-AEEA-γGlu-C18 diacid])D[αMeF]VQ[Aib]IANT-NH2 (not fully specified; also: S2: Aib per table) [Peptide 285]	87

GET /values?readout=hGluc-R EC50 (pM), cAMP&item= H[Aib]HGS[αMeF]TSDVSKYLDSRAAKDFVQWIANT-NH2 (not fully specified (residue 20); also: F6: αMePhe per table) [Peptide 292]
20.4

Now the binder H[Aib]HGS[αMeF]TSDVSK[αMeF]LDSRAAK([AEEA-AEEA-γGlu-γGlu-C20 diacid])D[αMeF]VQSIANT-NH2 (not fully specified) [Peptide 244]
420

Now the binder H[Aib]HGS[αMeF]TSDVSK[αMeF]LDSRAAK([AEEA-γGlu-AEEA-C20 diacid])D[αMeF]VQ[Aib]IANT-NH2 [Peptide 265]
131
